Listed binders paired with reported fold change of affinity
Target: T1, Human CD3eg linker (human)
T1 construct: Single chain: epsilon and gamma subunits of human CD3 joined by a 29-mer linker, Flag-tag at the C-terminus; also called recombinant human CD3
T1 chain: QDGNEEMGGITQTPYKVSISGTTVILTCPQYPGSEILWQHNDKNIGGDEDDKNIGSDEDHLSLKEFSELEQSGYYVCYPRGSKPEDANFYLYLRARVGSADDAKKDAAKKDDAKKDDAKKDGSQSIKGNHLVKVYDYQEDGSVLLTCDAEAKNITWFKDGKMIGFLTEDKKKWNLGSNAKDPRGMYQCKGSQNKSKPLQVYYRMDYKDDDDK
Test: Biacore SPR, vs template H183/L072
observable: fold change of affinity (fold)

binder	observable	result.units	value.reported
H183/L072 VH H96L (antibody, name in Kabat numbering, V domains shown) VH: QVQLVESGGGLVQPGRSLRLSCAASGFTFSNAWMHWVRQAPGKGLEWVAQIKDKGNAYAAYYAPSVKGRFTISRDDSKNSIYLQMNSLKTEDTAVYYCHYVLYASASTVLPAFGVDAWGQGTTVTVSS VL: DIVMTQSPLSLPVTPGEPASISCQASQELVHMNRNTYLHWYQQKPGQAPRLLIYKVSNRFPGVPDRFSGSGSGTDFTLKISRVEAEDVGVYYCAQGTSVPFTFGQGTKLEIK	fold change of affinity	fold	0
H183/L072 VH S30H (antibody, name in Kabat numbering, V domains shown) VH: QVQLVESGGGLVQPGRSLRLSCAASGFTFHNAWMHWVRQAPGKGLEWVAQIKDKGNAYAAYYAPSVKGRFTISRDDSKNSIYLQMNSLKTEDTAVYYCHYVHYASASTVLPAFGVDAWGQGTTVTVSS VL: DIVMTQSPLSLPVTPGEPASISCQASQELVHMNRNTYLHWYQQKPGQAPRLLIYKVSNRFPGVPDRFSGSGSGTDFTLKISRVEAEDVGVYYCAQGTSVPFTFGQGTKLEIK	fold change of affinity	fold	1
